The entries below come with measured glycan array binding signal (z-score) values attached.
- system.under.test: Gal(b1-4)GlcNAc(b1-3)GalNAc
- test.description: glycan array binding signal (z-score within array); higher = stronger binding
- setup.conditions: glycan notation: IUPAC condensed, linker removed
The entries come from a sample that favours the strongest signals as a whole.
The answer should be written as a number, with no unit following it.

binder | reported
SSR2 (Sclerotium rolfsii) (protein) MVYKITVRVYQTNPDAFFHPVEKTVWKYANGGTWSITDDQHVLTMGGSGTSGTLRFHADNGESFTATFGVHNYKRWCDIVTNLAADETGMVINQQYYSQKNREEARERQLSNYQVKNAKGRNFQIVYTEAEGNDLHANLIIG | -0.281

# input Please indicate glycan array binding signal (z-score) recorded for Epa2 (Candida glabrata) (protein) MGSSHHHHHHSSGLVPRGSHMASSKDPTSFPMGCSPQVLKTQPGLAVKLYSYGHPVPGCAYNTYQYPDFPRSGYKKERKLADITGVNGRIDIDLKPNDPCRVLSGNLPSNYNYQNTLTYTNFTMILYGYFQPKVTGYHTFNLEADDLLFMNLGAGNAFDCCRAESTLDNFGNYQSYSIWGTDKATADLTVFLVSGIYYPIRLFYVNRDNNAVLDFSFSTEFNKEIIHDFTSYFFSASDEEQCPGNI
# output -0.071

# input Please indicate glycan array binding signal (z-score) recorded for AFL5 (Aspergillus fumigatus), Q4WB00 (protein) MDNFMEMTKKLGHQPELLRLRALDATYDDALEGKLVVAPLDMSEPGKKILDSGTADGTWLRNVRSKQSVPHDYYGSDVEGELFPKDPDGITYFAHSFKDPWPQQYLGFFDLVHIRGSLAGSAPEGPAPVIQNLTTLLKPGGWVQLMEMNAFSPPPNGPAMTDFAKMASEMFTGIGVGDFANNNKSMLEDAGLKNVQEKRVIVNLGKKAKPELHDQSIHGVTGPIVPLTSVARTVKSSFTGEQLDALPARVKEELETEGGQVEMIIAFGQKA
# output -0.561
